Molecular target: T1, human CD19 (human, UniProt P15391 20-556)
T1 construct: also called B-cell surface antigen B4; B-cell antigen CD19
T1 sequence: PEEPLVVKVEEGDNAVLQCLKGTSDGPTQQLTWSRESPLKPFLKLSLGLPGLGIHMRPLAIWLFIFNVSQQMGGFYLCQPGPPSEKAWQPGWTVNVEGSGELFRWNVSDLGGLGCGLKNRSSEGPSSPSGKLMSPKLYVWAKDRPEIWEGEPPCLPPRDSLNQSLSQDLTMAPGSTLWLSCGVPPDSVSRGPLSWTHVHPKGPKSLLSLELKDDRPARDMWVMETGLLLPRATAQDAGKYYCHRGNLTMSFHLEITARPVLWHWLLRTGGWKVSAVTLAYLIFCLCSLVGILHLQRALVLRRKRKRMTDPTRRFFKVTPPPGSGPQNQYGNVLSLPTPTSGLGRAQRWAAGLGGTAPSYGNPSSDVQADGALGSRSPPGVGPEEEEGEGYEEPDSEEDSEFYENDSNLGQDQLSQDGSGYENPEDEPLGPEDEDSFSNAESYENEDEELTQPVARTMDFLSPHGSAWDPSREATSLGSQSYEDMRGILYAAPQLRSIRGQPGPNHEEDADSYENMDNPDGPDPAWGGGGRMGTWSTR
Experiment: DELFIA competition on Raji cells: unlabeled antibody competes with Eu-labeled anti-CD19 for surface CD19 [upper panel]
Readout Type: IC50 (read off the curve)

These solved cases illustrate the format of a correct answer.
Asked: Please supply the value of reported IC50 (read off the curve) for the item H0L0 (antibody, original 4G7 variable regions; also called 4G7 H0L0) heavy chain: EVQLQQSGPELIKPGASVKMSCKASGYTFTSYVMHWVKQKPGQGLEWIGYINPYNDGTKYNEKFKGKATLTSDKSSSTAYMELSSLTSEDSAVYYCARGTYYYGSRVFDYWGQGTTLTVSS light chain: DIVMTQAAPSIPVTPGESVSISCRSSKSLLNSNGNTYLYWFLQRPGQSPQLLIYRMSNLASGVPDRFSGSGSGTAFTLRISRVEAEDVGVYYCMQHLEYPFTFGAGTKLELK
Given back: ~5 nM

Asked: Please indicate IC50 (read off the curve) recorded for H1L0 (antibody, V domains shown, also called 4G7 H1L0) VH: EVQLVESGGGLVKPGGSLKLSCAASGYTFTSYVMHWVRQAPGKGLEWIGYINPYNDGTKYNEKFQGRVTISSDKSISTAYMELSSLRSEDTAMYYCARGTYYYGSRVFDYWGQGTLVTVSS VL: DIVMTQAAPSIPVTPGESVSISCRSSKSLLNSNGNTYLYWFLQRPGQSPQLLIYRMSNLASGVPDRFSGSGSGTAFTLRISRVEAEDVGVYYCMQHLEYPFTFGAGTKLELK
Given back: ~20 nM

Asked: Please report the measured IC50 (read off the curve) for H0L2 (antibody, V domains shown, also called 4G7 H0L2) VH: EVQLQQSGPELIKPGASVKMSCKASGYTFTSYVMHWVKQKPGQGLEWIGYINPYNDGTKYNEKFKGKATLTSDKSSSTAYMELSSLTSEDSAVYYCARGTYYYGSRVFDYWGQGTTLTVSS VL: DIVMTQSPSSLSASVGDRVTISCRSSKSLLNSNGNTYLYWFQQKPGQSPQLLIYRMSNLASGVPDRFSGSGSGTEFTLTISSLQPEDVAVYYCMQHLEYPFTFGAGTKLEIK
Given back: ~2 nM

Now look at this one.
Asked: Provide IC50 (read off the curve) value for the following binder: H0L1 (antibody, V domains shown, also called 4G7 H0L1) VH: EVQLQQSGPELIKPGASVKMSCKASGYTFTSYVMHWVKQKPGQGLEWIGYINPYNDGTKYNEKFKGKATLTSDKSSSTAYMELSSLTSEDSAVYYCARGTYYYGSRVFDYWGQGTTLTVSS VL: DIVMTQSPATLSLSPGERATLSCRSSKSLLNSNGNTYLYWFQQKPGQSPQLLIYRMSNLASGVPDRFSGSGSGTEFTLTISSLEPEDFAVYYCMQHLEYPFTFGAGTKLEIK
Given back: ~3 nM
